Origin of measurements: patent US20240182536A1

Assay target: T1, human IL-18 binding protein (IL-18BP) (human, UniProt O95998 31-194)
T1 sequence (looked up): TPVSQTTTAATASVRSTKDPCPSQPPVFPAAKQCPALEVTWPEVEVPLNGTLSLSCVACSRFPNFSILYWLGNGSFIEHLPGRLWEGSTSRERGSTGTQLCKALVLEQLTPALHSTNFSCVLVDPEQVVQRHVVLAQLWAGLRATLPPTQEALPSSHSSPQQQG
Assay notes: cell-based or functional assay
Value kind: HEK-blue EC50 (pM) + 300 nM BP
Express the result in pM but write the number alone.

INSERT INTO measurements (binder, value_kind, recorded_measurement) VALUES
  ('IL-18 variant G3T, E6K, K53A (ligand, also called G3T, K53A, E6K) YFTKLKSKLSVIRNLNDQVLFIDQGNRPLFEDMTDSDMRDNAPRTIFIISMYADSQPRGMAVTISVKSEKISTLSSENKIISFKEMNPPDNIKDTKSDIIFFQRSVPGHDNKMQFESSSYEGYFLASEKERDLFKLILKKEDELGDRSIMFTVQNED', 'HEK-blue EC50 (pM) + 300 nM BP', 1.49),
  ('IL-18 variant G3V, E6K, K53A (ligand, also called G3V, K53A, E6K) YFVKLKSKLSVIRNLNDQVLFIDQGNRPLFEDMTDSDMRDNAPRTIFIISMYADSQPRGMAVTISVKSEKISTLSSENKIISFKEMNPPDNIKDTKSDIIFFQRSVPGHDNKMQFESSSYEGYFLASEKERDLFKLILKKEDELGDRSIMFTVQNED', 'HEK-blue EC50 (pM) + 300 nM BP', 1.71),
  ('Comparator 1 (human IL-18 variant M51K, K53S, Q56L, P57A, M60L, S105D, D110S, N111R) (ligand) YFGKLESKLSVIRNLNDQVLFIDQGNRPLFEDMTDSDCRDNAPRTIFIISKYSDSLARGLAVTISVKCEKISTLSCENKIISFKEMNPPDNIKDTKSDIIFFQRDVPGHSRKMQFESSSYEGYFLACEKERDLFKLILKKEDELGDRSIMFTVQNED', 'HEK-blue EC50 (pM) + 300 nM BP', 0.11),
  ('IL-18 variant G3V, M60K (ligand) YFVKLESKLSVIRNLNDQVLFIDQGNRPLFEDMTDSDMRDNAPRTIFIISMYKDSQPRGKAVTISVKSEKISTLSSENKIISFKEMNPPDNIKDTKSDIIFFQRSVPGHDNKMQFESSSYEGYFLASEKERDLFKLILKKEDELGDRSIMFTVQNED', 'HEK-blue EC50 (pM) + 300 nM BP', 0.59),
  ('IL-18 variant G3V, M60K, D157E (ligand) YFVKLESKLSVIRNLNDQVLFIDQGNRPLFEDMTDSDMRDNAPRTIFIISMYKDSQPRGKAVTISVKSEKISTLSSENKIISFKEMNPPDNIKDTKSDIIFFQRSVPGHDNKMQFESSSYEGYFLASEKERDLFKLILKKEDELGDRSIMFTVQNEE', 'HEK-blue EC50 (pM) + 300 nM BP', 0.6);

Enquiry: May I ask what HEK-blue EC50 (pM) + 300 nM BP has been recorded for IL-18 variant G3T, M60K, D157E (ligand) YFTKLESKLSVIRNLNDQVLFIDQGNRPLFEDMTDSDMRDNAPRTIFIISMYKDSQPRGKAVTISVKSEKISTLSSENKIISFKEMNPPDNIKDTKSDIIFFQRSVPGHDNKMQFESSSYEGYFLASEKERDLFKLILKKEDELGDRSIMFTVQNEE ?
Return: 2.77

Enquiry: Input IL-18 variant M60K, D157E (ligand) YFGKLESKLSVIRNLNDQVLFIDQGNRPLFEDMTDSDMRDNAPRTIFIISMYKDSQPRGKAVTISVKSEKISTLSSENKIISFKEMNPPDNIKDTKSDIIFFQRSVPGHDNKMQFESSSYEGYFLASEKERDLFKLILKKEDELGDRSIMFTVQNEE
Return: 15.1

Enquiry: Input IL-18 variant M60K (ligand) YFGKLESKLSVIRNLNDQVLFIDQGNRPLFEDMTDSDMRDNAPRTIFIISMYKDSQPRGKAVTISVKSEKISTLSSENKIISFKEMNPPDNIKDTKSDIIFFQRSVPGHDNKMQFESSSYEGYFLASEKERDLFKLILKKEDELGDRSIMFTVQNED
Return: 38.3
